Provenance of the data: paper PMC9876794

System tested: SARS-CoV-2 spike RBD (WT) (Severe acute respiratory syndrome …, UniProt P0DTC2)
Assay explanation: BLI
pKd: −log10 of the molar value.
Entries and their pKd

{"Binder": "D013 (antibody, V domains shown) VH: QVQLVQSGAEVKKPGASVRISCKTSGYIFAYYFIHWFRQAPGQGPEWMGWINPKSGGTNYAQKFQDRVTMTTDSSITTAFMALRSLRSDDTAVYYCTREGVGTISDAGFGYWGQGTPVTVSS VL: SYVLTQPPSVSVAPGKTATITCGGNNIGSKSVHWYHQKPGQAPVMVVYNDKERPSGIPERFSGSKSGNTATLTITWVEADDEADYYCQAWDRPSGYVFGTGTKVTVL", "pKd": 6.47}
{"Binder": "C2698 (antibody, V domains shown) VH: EVQLVESGGGLAQPGRSLRLSCAASGFKFDDYAMHWVRQVPGQGLEWVSGIDWNSGIIGYADSVMGRFTISRDNAKKSLYLQMNSLRTEDTALYYCAKSGGFGEFKWFDPWGQGTLVTVSS VL: EIVMTQSPATLSVSPGERATLSCRASQSVSSNLAWYQQKPGQAPRLLIYGASTRATGFPARFSGSGSGTEFTLTISRLQSEDFAVYYCQQYNKWPRTFGQGTKLEIK", "pKd": 6.82}
{"Binder": "D145 (antibody, V domains shown) VH: QVQLVESGGGVVQPGRSLRLSCAASGFTFSSYGMHWVRQAPGKGLEWVAVISYDGSNKYYADSVKGRFTISRDNSKNTLYLQMNSLRAEDTAVYYCAKGSGPYYYDSSGYYSLFDYWGQGTLVTVSS VL: EIVMTQSPATLSVSPGERATLSCRASQSISSNLAWYQQKPGQAPRLLIDGASTRATGIPARFSGSGSGTEFTLTISSLQSEDFAVYYCQQYNNWPTFGQGTKLEIK", "pKd": 7.33}
